# Assay Explanation: self-splicing fitness, log relative to wild type (ln ratio); higher = more splicing; Tetrahymena group I intron in knt gene, E. coli kanamycin selection, DiMSum; sequences stand for … in CUCUCU…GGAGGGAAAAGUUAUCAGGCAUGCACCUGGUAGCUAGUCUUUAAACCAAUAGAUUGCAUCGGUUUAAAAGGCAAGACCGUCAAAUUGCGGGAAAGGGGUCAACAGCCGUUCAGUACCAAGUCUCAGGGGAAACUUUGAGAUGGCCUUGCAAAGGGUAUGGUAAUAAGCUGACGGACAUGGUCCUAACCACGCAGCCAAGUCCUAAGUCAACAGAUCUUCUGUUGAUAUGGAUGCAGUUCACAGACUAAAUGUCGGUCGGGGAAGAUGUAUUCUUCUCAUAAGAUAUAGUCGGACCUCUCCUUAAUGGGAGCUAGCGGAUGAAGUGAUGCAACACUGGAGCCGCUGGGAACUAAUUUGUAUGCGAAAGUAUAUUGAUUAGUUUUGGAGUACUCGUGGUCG;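 note: selection with 25 µg/mL kanamycin versus none on LB agar overnight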
# Settings: 30 °C
Okay, here is how we bin by self-splicing fitness (ln): lower band (below -3), central band (-3 to below -1), upper band (-1 or more)

Answered cases to consult:
>>> print(df.to_string())
               seq_text         label
0  GACUAGCAAUAUUACGGGCU  central band
1  GGAGAGCAAUAUUACGGUUG  central band
2  CUACAGCAAUAUUACGGGGA    lower band
3  GGGAAGCAAUAUUACGGGCU    upper band

Task: Determine which band this sequence sits in: "UCUUAGCAAUAUUACGUAAG"
Output: upper band

Task: Determine which band this sequence sits in: "GCAAAGCAAUAUUACGCGCC"
Output: central band

###

# Assay Explanation: self-splicing fitness, log relative to wild type (ln ratio); higher = more splicing; Tetrahymena group I intron in knt gene, E. coli kanamycin selection, DiMSum; sequences stand for … in CUCUCU…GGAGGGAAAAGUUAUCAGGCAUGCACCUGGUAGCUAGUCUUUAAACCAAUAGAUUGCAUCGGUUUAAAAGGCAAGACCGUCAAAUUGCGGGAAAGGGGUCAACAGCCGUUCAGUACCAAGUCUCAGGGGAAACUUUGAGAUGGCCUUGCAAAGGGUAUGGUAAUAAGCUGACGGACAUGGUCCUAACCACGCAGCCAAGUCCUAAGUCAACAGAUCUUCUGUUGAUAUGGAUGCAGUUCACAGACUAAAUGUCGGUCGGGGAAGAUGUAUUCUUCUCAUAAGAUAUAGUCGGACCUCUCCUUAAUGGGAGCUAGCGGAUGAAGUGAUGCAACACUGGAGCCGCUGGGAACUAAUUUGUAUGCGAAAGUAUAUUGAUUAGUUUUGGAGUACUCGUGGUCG
# Settings: 37 °C
Okay, here is how we bin by self-splicing fitness (ln): bottom range = under -2, center range = from -2 up to -0.8, top range = -0.8 and over

               seq_text         label
0  CACUAGCAAUAUUACGUGCU  bottom range
1  CACCAGCAAUAUUACGUGAC  bottom range
2  UACUAGCAAUAUUACGCUAG  bottom range

Task: Determine which band this sequence sits in: "GCUUAGCAAUAUUACGAUGA"
Output: top range

###

# Assay Explanation: self-splicing fitness, log relative to wild type (ln ratio); higher = more splicing; Tetrahymena group I intron in knt gene, E. coli kanamycin selection, DiMSum; sequences stand for … in CUCUCU…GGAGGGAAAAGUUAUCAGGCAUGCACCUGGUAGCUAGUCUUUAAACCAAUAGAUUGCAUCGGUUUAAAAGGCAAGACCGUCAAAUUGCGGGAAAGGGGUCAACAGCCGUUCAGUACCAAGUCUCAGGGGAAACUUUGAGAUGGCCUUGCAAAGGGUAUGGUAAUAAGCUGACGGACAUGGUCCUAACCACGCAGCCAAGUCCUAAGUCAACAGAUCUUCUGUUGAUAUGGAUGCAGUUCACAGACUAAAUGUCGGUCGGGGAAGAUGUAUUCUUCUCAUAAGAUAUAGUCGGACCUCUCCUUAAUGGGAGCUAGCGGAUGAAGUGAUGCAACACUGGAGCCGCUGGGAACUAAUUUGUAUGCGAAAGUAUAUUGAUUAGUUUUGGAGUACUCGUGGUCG
# Settings: 37 °C
Quantity Name: self-splicing fitness (ln)
Give bare numbers.

See these solved cases before continuing.
In [3]: df
Out[3]:
               seq_text               quantity_name  result_value
0  CGGGAGCAAUAUUACGGUUC  self-splicing fitness (ln)         -1.95
1  CUCGAGCAAUAUUACGCCUA  self-splicing fitness (ln)        -0.858
2  UAAAAGCAAUAUUACGGUCC  self-splicing fitness (ln)         -2.03
3  ACGCAGCAAUAUUACGAAUA  self-splicing fitness (ln)         -2.19
4  CUUCAGCAAUAUUACGCCUU  self-splicing fitness (ln)         -3.25

Dear colleague, could you send me self-splicing fitness (ln) for each of the items below? Thanks.
1. AUCGAGCAAUAUUACGACCU
2. GACAAGCAAUAUUACGUCCU
3. UAGUAGCAAUAUUACGAUUG
4. ACGCAGCAAUAUUACGGAAA
5. GGCAAGCAAUAUUACGAGAG
6. GUGUAGCAAUAUUACGCUAA

Output:
1: -0.344; 2: -0.755; 3: -0.0425; 4: -0.506; 5: -2.26; 6: -1.01

Dear colleague, could you send me self-splicing fitness (ln) for each of the items below? Thanks.
1. CAUCAGCAAUAUUACGAAAA
2. CGAUAGCAAUAUUACGAUGG
3. GGGCAGCAAUAUUACGCCGA
4. GGUCAGCAAUAUUACGUUCA
5. GUCUAGCAAUAUUACGAAUA

Output:
-2.89
-0.185
0.467
-0.487
-0.494

###

# Assay Explanation: self-splicing fitness, log relative to wild type (ln ratio); higher = more splicing; Tetrahymena group I intron in knt gene, E. coli kanamycin selection, DiMSum; sequences stand for … in CUCUCU…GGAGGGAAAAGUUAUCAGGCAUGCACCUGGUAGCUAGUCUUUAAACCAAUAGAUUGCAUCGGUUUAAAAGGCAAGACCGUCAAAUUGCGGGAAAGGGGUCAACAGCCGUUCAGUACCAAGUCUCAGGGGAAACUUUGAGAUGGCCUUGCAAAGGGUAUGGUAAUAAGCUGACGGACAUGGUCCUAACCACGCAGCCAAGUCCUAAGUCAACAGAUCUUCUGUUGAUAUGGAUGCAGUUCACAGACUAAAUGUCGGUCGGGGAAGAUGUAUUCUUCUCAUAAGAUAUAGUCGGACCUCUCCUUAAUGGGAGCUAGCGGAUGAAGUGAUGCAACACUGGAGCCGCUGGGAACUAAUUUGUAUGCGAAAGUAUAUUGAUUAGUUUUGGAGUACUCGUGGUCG
# Settings: 30 °C
Quantity Name: self-splicing fitness (ln)
Give bare numbers.

>>> df
               seq_text  result_value
0  AAACAGCAAUAUUACGAUAU         -1.82
1  ACAGAGCAAUAUUACGGGGG          -3.7
2  UGCCAGCAAUAUUACGCGUA         -1.13
3  AUUAAGCAAUAUUACGGCGC         -0.47
4  CUUCAGCAAUAUUACGGCAG        -0.556
5  AAGUAGCAAUAUUACGUUAU         -1.93
6  AAGGAGCAAUAUUACGAUAC         -3.49
7  CCGAAGCAAUAUUACGGUUU         -4.44

Dear colleague, could you send me self-splicing fitness (ln) for each of the items below? Thanks.
1. UUCUAGCAAUAUUACGUAUU
2. GAAAAGCAAUAUUACGGGUC
3. CCGUAGCAAUAUUACGACAU
4. UUCUAGCAAUAUUACGGACU
5. CCCGAGCAAUAUUACGUUGU

Output:
1: -3.61; 2: -2.09; 3: -3.77; 4: -1.6; 5: -3.46

Dear colleague, could you send me self-splicing fitness (ln) for each of the items below? Thanks.
1. UGCUAGCAAUAUUACGUUCG
2. CAACAGCAAUAUUACGUCCC

Output:
[-0.807, -1.72]

Task: Consider the sequence shown here: "UUUGAGCAAUAUUACGGGCU" What is its recorded self-splicing fitness (ln)?
Output: -2.89

###

# Assay Explanation: self-splicing fitness, log relative to wild type (ln ratio); higher = more splicing; Tetrahymena group I intron in knt gene, E. coli kanamycin selection, DiMSum; sequences stand for … in CUCUCU…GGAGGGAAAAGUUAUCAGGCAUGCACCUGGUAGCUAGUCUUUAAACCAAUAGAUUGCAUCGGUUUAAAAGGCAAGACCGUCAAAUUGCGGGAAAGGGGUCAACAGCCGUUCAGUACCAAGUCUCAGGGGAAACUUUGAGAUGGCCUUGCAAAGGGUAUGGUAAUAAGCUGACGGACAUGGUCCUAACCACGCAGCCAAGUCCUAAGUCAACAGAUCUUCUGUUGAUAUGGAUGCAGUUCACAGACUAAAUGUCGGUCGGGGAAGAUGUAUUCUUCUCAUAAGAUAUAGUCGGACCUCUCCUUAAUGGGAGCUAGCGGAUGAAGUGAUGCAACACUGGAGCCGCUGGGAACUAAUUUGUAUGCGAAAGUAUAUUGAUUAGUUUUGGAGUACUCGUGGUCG
# Settings: 37 °C
Could you label it class 1 if measured self-splicing fitness (ln) is -0.8 or higher, and class 0 otherwise?

Task: Threshold query (self-splicing fitness (ln) >= -0.8) on "GGGAAGCAAUAUUACGAGAA"
Output: class 0

Task: Threshold query (self-splicing fitness (ln) >= -0.8) on "UUCCAGCAAUAUUACGACUC"
Output: class 0

Task: Threshold query (self-splicing fitness (ln) >= -0.8) on "AACAAGCAAUAUUACGACCG"
Output: class 1

Task: Threshold query (self-splicing fitness (ln) >= -0.8) on "GACAAGCAAUAUUACGCUUG"
Output: class 0

Task: Threshold query (self-splicing fitness (ln) >= -0.8) on "UAGAAGCAAUAUUACGGAAU"
Output: class 0

Task: Threshold query (self-splicing fitness (ln) >= -0.8) on "UGACAGCAAUAUUACGUGGG"
Output: class 1

Task: Threshold query (self-splicing fitness (ln) >= -0.8) on "UCCUAGCAAUAUUACGAGGA"
Output: class 0

Task: Threshold query (self-splicing fitness (ln) >= -0.8) on "GGAUAGCAAUAUUACGAUAC"
Output: class 0
